Several publications report pKd on Beta-2 adrenergic receptor (Homo sapiens); those values are gathered here.
In simple prose, pKd is minus the logarithm base ten of a concentration in moles per litre.

> print(dat)
                                   compound  quantity.kind  numeric.readout
1  CCC(NC(C)C)C(O)c1ccc(O)c(O)c1 (stereo not drawn)            pKd             6.00
2  CCC(NC(C)C)C(O)c1ccc(O)c2[nH]c(=O)ccc12 (stereo not drawn)            pKd             7.10
3  CCc1cc2c(cc1CC)CC(C)(NC[C@H](O)c1ccc(O)c3[nH]c(=O)ccc13)C2            pKd             9.59
4        CCCCCNC(=O)/N=C(\N)NCCCc1sc(N)nc1C            pKd            10.15
5     N/C(=N\C(=O)NCc1ccccc1)NCCCc1nnc(N)s1            pKd            10.15
6  C[C@@H](NCCc1ccc(O)cc1)[C@@H](O)c1ccc(O)cc1 (relative stereo)            pKd             9.30

Print Beta-2 adrenergic receptor (Homo sapiens) pKd for CC(C)NCC(O)c1cc(O)cc(O)c1 (stereo not drawn) . 5.32

Print Beta-2 adrenergic receptor (Homo sapiens) pKd for CC(C)(C)NC[C@H](O)c1ccc2c(c1)CO[B-](O)(O)O2 . 7.00
